Measurement kind: melting point

See these solved cases before continuing.
Compound	Readout value
COc1ccc(S(=O)(=O)Nc2ccccc2Nc2ncccn2)cc1	193 to 195 °C
CC(O)CNc1ccc(NC(=O)n2ccc3cc(Oc4cc(CC(N)=O)ncn4)ccc32)cc1C(F)(F)F (configuration not stated)	226 to 230 °C
CC(C)NCC(O)c1cc(F)cc(C#N)c1 (configuration not stated)	85.5 to 86.5 °C
CN(C)Cc1nc(-c2ccccc2)cn1Cc1ccccc1	78 to 80 °C
CC(C)(C)C(=O)N1CCSC1=S	48 to 50 °C
Nc1nc2ccccc2c2c1ncn2CC1(O)CCOCC1	260 to 262 °C
O=C(O)CCC(=NO)c1ccc(-c2ccc(Br)cc2)cc1	175 to 176 °C
O=c1ccn(C2CC(O)C(COC3(c4ccccc4)c4ccccc4Oc4ccccc43)O2)c(=O)[nH]1 (configuration not stated)	157 to 160 °C

Exercise: What does the record list as melting point for O=c1c(Oc2ccccc2)nc2ccccc2n1-c1ccc(Cl)cc1 ?
Solution: 239 to 241 °C

Exercise: Value lookup for melting point; key = O=c1c2ccccc2ncn1C1CCN(CCC(CC(F)(F)F)c2ccccc2)CC1 (configuration not stated)
Solution: 128 to 129 °C

Exercise: Quick one: melting point of N#CCc1cc(C(=O)O)cs1 ?
Solution: 154 to 159 °C

Exercise: I'd like to know its melting point. The compound in question is COc1ccc(N2CCN(c3c(C)c(C)c4c(c3C)CC(C)(CN(Cc3ccccc3)Cc3ccccc3)O4)CC2)cc1 (configuration not stated)
Solution: 168 to 170 °C

Exercise: Need melting point, item CCOC(=O)C1=C(C)NC(N)=C(C(=O)OCC)C1c1cccc([N+](=O)[O-])c1 (configuration not stated)
Solution: 169 °C

Exercise: Fill in: melting point of CC(C)(C)OC(=O)N(O)C(=O)[C@H](N)COCc1ccccc1 is ___
Solution: 128 to 130 °C

Exercise: Value lookup for melting point; key = Cc1ccc(C(=O)c2ccc(C(=O)c3ccc(C)cc3)cc2)cc1
Solution: 178 to 187 °C

Exercise: What does the data say about its melting point? Entry: CC(C)CNC1NC(=O)N(c2cccs2)C(=O)N1
Solution: 265 to 268 °C

Exercise: Endpoint output: melting point of CN1CCN(c2cc(Cl)cc3c2c(=O)n(Cc2ccncc2)c(=O)n3Cc2ccccc2)CC1 . Value?
Solution: 94 to 100 °C

Exercise: What value of melting point has been recorded for this entry: O=[N+]([O-])N=C(NCc1cnc(Cl)s1)NCc1cnc(Cl)s1
Solution: 217 to 218 °C

Exercise: Please report the recorded melting point for O=[N+]([O-])c1cc(OC2CCCC2)c(Cl)cc1F .
Solution: 58 to 62.6 °C

Exercise: I'd like to know its melting point. The compound in question is CC12CCC3C(CC(O)C4(O)CC=CCC34C)C1CC=C2Br (configuration not stated)
Solution: 170 to 175 °C

Exercise: Record request: melting point value, item O=C(CCc1ccccc1)Cn1ccnc1
Solution: 172 to 173 °C

Exercise: Any idea what its melting point is? The compound is CC(C)(C)OC(=O)N1CCN(c2cccc([N+](=O)[O-])c2)CC1
Solution: 82 to 92 °C

====

Reported values of melting point for individual entries

Known results for molecules:
Molecule	Readout value
O=C(C=Cc1ccccc1)c1cccc(O)c1	143 to 147 °C
CCOC(O)(OCC)C(Cc1ccc2ccccc2c1)NC(=O)OC(C)(C)C (stereo unspecified)	87 °C
COc1ccc(C(=O)Nc2ccncc2)c2c1oc1ccccc12	215 °C
O=CC(=Cc1cccc(OCc2ccccc2)c1)C(C=O)=Cc1cccc(OCc2ccccc2)c1	126 to 127 °C
COc1cc(C(=O)N2Cc3ccc(C(=O)NCc4cccnc4)n3Cc3ccccc32)ccc1-c1ccccc1C	165 to 167 °C
CCN(c1ccc(C(=O)O)cc1)c1cc2c3c(c1)CCCC3(C)CCC2	279 to 280 °C

Would you kindly look at the next entry?
Exercise: Using the record for O=C(NC1CSc2ccccc2NC1=O)OCc1ccccc1 (stereo unspecified) , report its melting point.
Solution: 149 to 151 °C
